- TARGET_OR_TEST_SYSTEM: pooled human IgG (human IgG1,2,3 and 4)
The entries below come with measured Enzyme activity endpoint: IgG values attached.
Numeric answer only, unit ng/µL assumed.

[
  {
    "PROTEIN": "PRT-604 (protein) MQITSVWTKGVTPLTPEQFRYNNEDVIHAPYLAHQGWYDITKAFDGKDNLLCGAATAGNMLHWWFDQNKTEIEAYLSKHPEKQKIIFNNQELFDLKAAIDTKDSQTNSQLFNYFRDKAFPNLSARQLGVMPDLVLDMFINGYYLNVFKTQSTDVNRPYQDKDKRGGIFDDVFGKGDQTTLLTARHDLKNKGLNDISTIIKQELTEGRALALSHTYANVSISHVINLWGADFNAEGNLEAIYVTDSDANASIGMKKYFVGINAHGHVAISAKKIEGENIGAQVLGLFTLSSGKDIWQKLSLEHHHHHH",
    "NUMBER": 396
  }
]

// below: Enzyme activity endpoint: IgG requested for another protein
Request: Consider the protein PRT-673 (protein) MQITSVWTKGVTPPTPEQFRYYNEDVLHAPYKPHQGWYDITKTFNGKDNLLCGAATAGNMLHWWFDQNKTQIEAYLKKYPEKQKIIFNNQKMFDLRKAINTKDSQTNSALFSYFKDKAFPNLSARQRGVMPDLVLDMFINGYYLNVGKTQSTDVNRPYQTRDKRGGIFDHVFGRGDQTKLLTARHDLKNKTLNEISQLIKQELSEGKALALSHTYANVSISHVINLWGADFNAEGNLEAIYVTDSDSDAKIGMKKYYVGKNASGKVAISAKKIEGENIGAQVLGLYTLSTGKDIWQKLSLEHHHHHH and give its measured Enzyme activity endpoint: IgG.
Response: 601

Taken from patent US20250027068.
